study.system: MTHFD2 recombinant human enzyme (Homo sapiens)
Sequence (P13995 36-350): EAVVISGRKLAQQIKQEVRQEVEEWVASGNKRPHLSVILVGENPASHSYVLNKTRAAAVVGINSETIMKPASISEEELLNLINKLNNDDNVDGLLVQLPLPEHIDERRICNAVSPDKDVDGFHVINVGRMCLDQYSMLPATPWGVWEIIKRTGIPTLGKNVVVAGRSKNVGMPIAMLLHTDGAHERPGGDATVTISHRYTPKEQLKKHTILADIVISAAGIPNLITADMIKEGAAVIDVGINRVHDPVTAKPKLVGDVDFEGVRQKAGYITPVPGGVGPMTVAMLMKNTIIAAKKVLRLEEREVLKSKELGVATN
experimental.protocol: MTHFD2 inhibition assay (NAD(P)H-Glo luminescence)
condition.label: selectivity of MTHFD2 inhibition over MTHFD1, band

[
  {
    "structure.smiles": "COC[C@H]1CN(c2cc(C)c3c4c(c(=O)oc3c2C)CN(C(=O)c2ccc(C(=O)NS(=O)(=O)C3(C)CC3)c(N(C)C3CCC3)c2F)CC4)CCN1C",
    "MTHFD1/MTHFD2 IC50 ratio": "G (^ 3 to 9.0)"
  },
  {
    "structure.smiles": "COC[C@H]1CN(c2cc(C)c3c4c(c(=O)oc3c2C)CN(C(=O)c2ccc(C(=O)NS(=O)(=O)N(C)C)c(N(C)C3CC3)c2)CC4)CCN1C",
    "MTHFD1/MTHFD2 IC50 ratio": "G (^ 3 to 9.0)"
  },
  {
    "structure.smiles": "CCOc1cc(C(=O)N2CCc3c(c(=O)oc4c(C)c(N5CCN(C)[C@@H](COC)C5)cc(C)c34)C2)c(F)cc1C(=O)NS(=O)(=O)N(C1CC1)C1CC1",
    "MTHFD1/MTHFD2 IC50 ratio": "G (^ 3 to 9.0)"
  }
]
